- target entity: BCLXL WT (Homo sapiens (Human))
- test summary: TR-FRET competitive binding assay, BCLXL WT
- stated conditions: ratio Ki BCLxL / Ki BCL2 WT
- Protocol: The relative binding potency of each compound was determined in a competitive binding assay using time resolved-fluorescence resonance energy transfer (TR-FRET). […] The degree of binding or corresponding compound inhibition can be quantified by the TR-FRET signal between the terbium donor and fluorescein acceptor. […] TR-FRET measurements were performed on a Biotek Synergy Neo plate reader. […] The TR-FRET signal was calculated as the emission-ratio at 520 nm over 495 nm. […]
readout: TR_FRET EKI BCLxL/WT selectivty ratio

Consider the reported TR_FRET EKI BCLxL/WT selectivty ratio for these molecules:
query_smiles=Cc1c(N(C(=O)c2cc(-c3cc4c(cc3C(=O)N3Cc5ccccc5C[C@H]3C)CN(C(=O)Cc3ccc(OCCN(C)C)cc3F)CC4)n(C)c2C)c2ccccc2)cc(C#N)n1C target_entity="BCLXL WT (Homo sapiens (Human))" readout="TR_FRET EKI BCLxL/WT selectivty ratio" value_observed=108.9
query_smiles=Cc1c(N(C(=O)c2cc(-c3cc4c(cc3C(=O)N3Cc5ccccc5C[C@H]3C)CN(C(=O)Cc3cccc(N5CCOCC5)c3)CC4)n(C)c2C)c2ccc(O)cc2)cc(C#N)n1C target_entity="BCLXL WT (Homo sapiens (Human))" readout="TR_FRET EKI BCLxL/WT selectivty ratio" value_observed=8.5
query_smiles=Cc1c(N(C(=O)c2cc(-c3cc4c(cc3C(=O)N3Cc5ccccc5C[C@H]3C)CN(C(=O)Cc3ccc(OCCN5CCN(CC(F)F)CC5)cc3)CC4)n(C)c2C)c2ccc(O)cc2)cc(C#N)n1C target_entity="BCLXL WT (Homo sapiens (Human))" readout="TR_FRET EKI BCLxL/WT selectivty ratio" value_observed=18.9

I = COCC(=O)N1CCc2cc(-c3cc(C(=O)N(c4ccccc4)c4cc(C#N)n(C)c4C)c(C)n3C)c(C(=O)N3Cc4ccccc4C[C@H]3CN3CCCCC3)cc2C1
II = Cc1c(N(C(=O)c2cc(-c3cc4c(cc3C(=O)N3Cc5ccccc5C[C@H]3CN3CCCCC3)CN(C(=O)Cc3ccc(O[C@H]5CCN(CCF)C5)cc3F)CC4)n(C)c2C)c2ccc(O)cc2)cc(C#N)n1C
Compare reported TR_FRET EKI BCLxL/WT selectivty ratio values for I and II . Which is lower? Record your answer as the label of the chosen record. II

---

Quick note: these are Ki numbers for system: BCLXL WT (Homo sapiens (Human), UniProt Q07817)
Sequence (Q07817 other isoform, or with tags, fused parts or gaps): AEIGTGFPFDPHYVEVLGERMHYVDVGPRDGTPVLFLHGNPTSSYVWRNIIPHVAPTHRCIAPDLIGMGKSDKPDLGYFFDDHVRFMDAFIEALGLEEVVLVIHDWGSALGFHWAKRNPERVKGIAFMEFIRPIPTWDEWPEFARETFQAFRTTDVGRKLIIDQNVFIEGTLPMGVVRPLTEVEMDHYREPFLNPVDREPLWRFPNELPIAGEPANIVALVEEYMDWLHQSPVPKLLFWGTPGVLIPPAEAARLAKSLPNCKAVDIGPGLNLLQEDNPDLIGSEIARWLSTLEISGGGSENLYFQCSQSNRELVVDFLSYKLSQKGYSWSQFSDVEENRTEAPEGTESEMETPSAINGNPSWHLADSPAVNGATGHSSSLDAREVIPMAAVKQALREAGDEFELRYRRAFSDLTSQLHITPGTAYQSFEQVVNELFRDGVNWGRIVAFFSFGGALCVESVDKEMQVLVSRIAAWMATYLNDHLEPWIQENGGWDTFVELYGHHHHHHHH
readout: Ki (nM)

Consider the reported Ki for these compounds:
compound="Cc1c(N(C(=O)c2cc(-c3cc4c(cc3C(=O)N3Cc5ccccc5C[C@H]3C)CN(C(=O)Cc3ccc([C@H]5C[C@@H]5N5CCOCC5)cc3F)CC4)n(C)c2C)c2ccc(O)cc2)cc(C#N)n1C (single isomer, unassigned)" value_observed=2.3
compound=Cc1ccc(N(C(=O)c2cc(-c3cc4c(cc3C(=O)N3Cc5ccccc5C[C@H]3C)CN(C(=O)Cc3ccc(OCCN5CCOCC5)cc3F)CC4)n(C)c2C)c2ccccc2)cc1C#N value_observed=8.5

I = Cc1c(N(C(=O)c2cc(-c3cc4c(cc3C(=O)N3Cc5ccccc5C[C@H]3C)CN(C(=O)Cc3ccc(OCCN5CCN(CC(F)F)CC5)cc3)CC4)n(C)c2C)c2ccc(O)cc2)cc(C#N)n1C
II = Cc1c(N(C(=O)c2cc(-c3cc4c(cc3C(=O)N3Cc5ccccc5C[C@H]3C)CN(C(=O)Cc3ccc(OCCN5CCOCC5)cc3)CC4)n(C)c2C)c2ccc(F)cc2)cc(C#N)n1C
III = COCCn1cc(N(C(=O)c2cc(-c3cc4c(cc3C(=O)N3Cc5ccccc5C[C@H]3C)CN(C(=O)Cc3ccc(OCCN5CCOCC5)cc3)CC4)n(C)c2C)c2ccccc2)cn1
Order field: Ki | Direction: descending (largest first) Answer by listing the labels in the order asked for. III, II, I

---

- target entity: CYP3A4 (Homo sapiens (Human), UniProt P08684)
- Sequence (P08684 whole entry): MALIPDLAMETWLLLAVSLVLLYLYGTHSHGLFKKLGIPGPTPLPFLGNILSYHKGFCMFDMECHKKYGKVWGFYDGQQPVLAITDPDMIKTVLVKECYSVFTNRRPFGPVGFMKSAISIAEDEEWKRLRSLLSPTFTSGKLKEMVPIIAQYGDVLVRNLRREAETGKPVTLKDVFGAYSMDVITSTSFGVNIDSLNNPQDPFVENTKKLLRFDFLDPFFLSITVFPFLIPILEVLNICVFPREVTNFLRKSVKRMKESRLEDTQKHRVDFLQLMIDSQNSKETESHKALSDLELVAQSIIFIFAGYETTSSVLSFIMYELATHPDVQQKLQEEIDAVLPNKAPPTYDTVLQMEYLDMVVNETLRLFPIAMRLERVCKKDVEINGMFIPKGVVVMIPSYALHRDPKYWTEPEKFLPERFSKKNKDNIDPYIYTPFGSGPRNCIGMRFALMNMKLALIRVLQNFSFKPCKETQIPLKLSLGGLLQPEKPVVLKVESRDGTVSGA
readout: IC50

compound="Cc1c(N(C(=O)c2cc(-c3cc4c(cc3C(=O)N3Cc5ccccc5C[C@H]3CN3CCCCC3)CN(C(=O)Cc3ccc(OCCN5CCOCC5)cc3)CC4)n(C)c2C)c2ccc(O)cc2)cc(C#N)n1C [Example 67]" readout=IC50 value_observed="> 5 µM"

Measured IC50 of Cc1c(C(=O)N(c2ccc(O)cc2)c2cc(C#N)n(C(F)F)c2C)cc(-c2cc3c(cc2C(=O)N2Cc4ccccc4C[C@H]2CN2CCCCC2)CN(C(=O)Cc2ccc(OCCN4CCOCC4)cc2F)CC3)n1C [Example 78] : > 5 µM

Measured IC50 of Cc1c(N(C(=O)c2cc(-c3cc4c(cc3C(=O)N3Cc5ccccc5C[C@H]3C)CN(C(=O)c3ccccc3)CC4)n(C)c2C)c2ccc(O)cc2)cc(C#N)n1C [Example 25] : 12 µM

---

- target entity: BCL2 D103Y (Homo sapiens, UniProt P10415, D103Y)
- test summary: TR-FRET competitive binding assay, BCL2 D103Y
- stated conditions: Ki determined from IC50, read-out: TR_FRET EKI_Bcl2 D103Y
pKi: −log10 of the molar value.
readout: pKi

query_smiles=Cc1c(C(=O)N(c2ccc(O)cc2)c2cnn(C)c2)cc(-c2cc3c(cc2C(=O)N2Cc4ccccc4C[C@H]2C)CN(C(=O)Cc2ccc(OCCC4CCOCC4)cc2)CC3)n1C value_observed=9.41

a = COc1ncc(N(C(=O)c2cc(-c3cc4c(cc3C(=O)N3Cc5ccccc5C[C@H]3C)CN(C(=O)Cc3ccc(OCCN5CCOCC5)cc3)CC4)n(C)c2C)c2ccccc2)cc1F
b = Cc1c(N(C(=O)c2cc(-c3cc4c(cc3C(=O)N3Cc5ccccc5C[C@H]3CN3CCCCC3)CN(C(=O)Cc3ccc(OCCN5CCOC[C@H]5C)cc3F)CC4)n(C)c2C)c2ccc(O)cc2)cc(C#N)n1C
Compare reported pKi values for a and b . Which is lower? Record your answer as the label of the chosen record. a
(a: 9.46, b: 9.80)

---

- target entity: BCL2 D103Y (Homo sapiens, UniProt P10415, D103Y)
- test summary: TR-FRET competitive binding assay, BCL2 D103Y
- stated conditions: Ki determined from IC50, read-out: TR_FRET EKI_Bcl2 D103Y
readout: Ki (nM)

molecule="Cc1c(C(=O)N(c2ccccc2)c2cnn(C(F)F)c2)cc(-c2cc3c(cc2C(=O)N2Cc4ccccc4C[C@H]2C)CN(C(=O)Cc2ccc(OCCN(C)C)cc2)CC3)n1C [Example 199]" measurement_unit=nM value_observed=0.19

a = Cc1c(N(C(=O)c2cc(-c3cc4c(cc3C(=O)N3Cc5ccccc5C[C@H]3CN3CCCCC3)CN(C(=O)Cc3c(F)cc(OCCN5CCOCC5)cc3F)CC4)n(C)c2C)c2ccc(O)cc2)cc(C#N)n1C [Example 97]
b = Cc1c(N(C(=O)c2cc(-c3cc4c(cc3C(=O)N3Cc5ccccc5C[C@H]3C)CN(C(=O)Cc3ccc(OCCN5CCOC6(CCCC6)C5)cc3)CC4)n(C)c2C)c2ccc(O)cc2)cc(C#N)n1C [Example 73]
c = Cc1c(N(C(=O)c2cc(-c3cc4c(cc3C(=O)N3Cc5ccccc5C[C@H]3COCC3CC3)CN(C(=O)Cc3ccc(OCCN5CCOCC5)cc3F)CC4)n(C)c2C)c2ccc(O)cc2)cc(C#N)n1C [Example 170]
d = Cc1c(C(=O)N(c2ccccc2)c2cnn(C)c2)cc(-c2cc3c(cc2C(=O)N2Cc4ccccc4C[C@H]2C)CN(C(=O)Cc2ccc(OCCN(C)C)cc2)CC3)n1C [Example 208]
Order field: Ki | Direction: descending (largest first) Answer by listing the labels in the order asked for. b, c, a, d

---

Quick note: these are Ki numbers for system: BCLXL WT (Homo sapiens (Human), UniProt Q07817)
readout: Ki (nM)

Consider the reported Ki for these compounds:
compound="Cc1c(N(C(=O)c2cc(-c3cc4c(cc3C(=O)N3Cc5ccccc5C[C@H]3CN3CCCC3)CN(C(=O)Cc3ccc(OCCC5CCOCC5)cc3)CC4)n(C)c2C)c2ccc(O)cc2)cc(C#N)n1C [Example 99]" measurement_unit=nM value_observed=2.8
compound="Cc1c(N(C(=O)c2cc(-c3cc4c(cc3C(=O)N3Cc5ccccc5C[C@H]3CN3CCCCC3)CN(C(=O)Cc3ccc(OCCN5CCOC(C)C5)cc3F)CC4)n(C)c2C)c2ccc(O)cc2)cc(C#N)n1C (single isomer, unassigned) [Example 108]" measurement_unit=nM value_observed=2.1

A = Cc1c(N(C(=O)c2cc(-c3cc4c(cc3C(=O)N3Cc5ccccc5C[C@H]3C)CN(C(=O)Cc3ccc(N5CCC(N6CCOCC6)C5)cc3)CC4)n(C)c2C)c2ccc(O)cc2)cc(C#N)n1C (single isomer, unassigned) [Example 63]
B = Cc1c(N(C(=O)c2cc(-c3cc4c(cc3C(=O)N3Cc5ccccc5C[C@H]3C)CN(C(=O)Cc3ccc(OCCN5CCOCC5)cc3F)CC4)n(C)c2C)c2ccccc2)cc(C#N)n1C [Example 234]
For this pair, A and B , which shows a numerically higher Ki? Record your answer as the label of the chosen record. B
